I'd be grateful if you could share measured binding signal for these entries.
# Target: thrombin (alpha-thrombin) (Homo sapiens, UniProt P00734;P00734 P00734:315-363,P00734:364-622)
# Assay Comment: filter; 10 nM thrombin
Numbers only, in % bound.

TCCCGATTGATTCTGGGAGGTTTGGTTCTGGGTGGCTGAGGATCGATC (ssDNA) [AMX(399)_D4]; 10.4

Please state, for each entry, its recorded binding signal.
1. TCCCGATCGTTTCGTGGGGTAGTGTTGGTTGGGGTGGCTGAGGATCGATC (ssDNA) [AMX(398)_C9]
2. TCCCGACTTTAGATCCGTGTTGGATGGCCTGGGTGGCTGAGGATCGATC (ssDNA) [AMX(399)_H2]
3. TCCCTATGGATTCGGGGTACGTTAGTTCTGGGTGGCTGAGGATCGATC (ssDNA) [AMX(399)_F11]
4. TCCCGAGATCTTTATAGGGTATTGTTGGTTGGGGTGGCTGAGGATCGATC (ssDNA) [AMX(399)_E12]
5. TCCCGTGATCTCTGGGGTAACGTCTTGGTGTGGGTGGCTGAGGATCGATC (ssDNA) [AMX(399)_F1]

RESULT:
1. 20.7
2. 5.49
3. 35.1
4. 20.3
5. 16.7

Where do the numbers come from? From patent US20090221680.
